Recorded measurements of viability, T/C, one per entry
Test system: 324938-238-R-J1-PDC complex spheroid growth, % test/control;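 note: spheroids exposed to agents for seven days before viability read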
Measurement notes: Anticancer human tumor 324938-238-R-J1-PDC patient-derived bladder carcinoma cell line growth inhibition [AhR]
Assay context: second compound 1 µM; first compound 0.1 µM; active compounds read low
Test readout: viability, T/C (%)

1. O=C(C=Cc1cccc(S(=O)(=O)Nc2ccccc2)c1)NO + Cc1ccccc1N=Nc1ccc(NC(=O)c2ccnn2C)c(C)c1: 99.1
2. CC1(C)CCC(CN2CCN(c3ccc(C(=O)NS(=O)(=O)c4ccc(NCC5CCOCC5)c([N+](=O)[O-])c4)c(Oc4cnc5[nH]ccc5c4)c3)CC2)=C(c2ccc(Cl)cc2)C1 + CC(CO)NC(=O)c1cc(-c2ccc(Cl)cc2)nn(-c2cnn(C)c2)c1=O: 87.9
3. COc1cc(Nc2ncc3c(n2)-c2ccc(Cl)cc2C(c2c(F)cccc2OC)=NC3)ccc1C(=O)O + Cc1ccccc1N=Nc1ccc(NC(=O)c2ccnn2C)c(C)c1: 47.6
4. Nc1ccn(C2OC(CO)C(O)C2(F)F)c(=O)n1 (centres undefined) + Cc1cncc(-c2nc(NCCc3c[nH]c4ccccc34)c3ncn(C(C)C)c3n2)c1: 65.9
